These data points were gathered from paper PMC9090415.

- target entity: UniProt:Q8ILY1
- assay notes: Fluorescence-based high-throughput DNA polymerase assay (molecular beacon), primary screen and dose-response
- Assay type: biochemical
- cond: DRC-1; 10'; concentration 80

{"columns": ["compound", "% inhibition Apo pol 10', %"],
 "data": [
  ["O=C1NCCCn2cc(S(=O)(=O)Nc3ccccc3)cc21 [KU0214835]", 90.7287],
  ["CN(C)C=CC(=O)c1ccccn1 [Molecule 64, CN(C=CC(=O)c1ccccn1)C]", 79.1475],
  ["O=C(Nc1ccc2c(c1)Cc1cc(NC(=O)c3ccco3)ccc1-2)c1ccco1 [KU0038977]", 91.1334],
  ["CCC(C)NC(=O)c1cc(NC(C)=O)cc2nc(C)ccc12 (stereo not shown) [KU0206314]", 89.0945],
  ["COc1cc(NC(=O)c2ccccc2)c(OC)cc1NC(=O)Cc1cccs1 [KU0032113]", 80.874],
  ["CCOc1ccc(/C=C2\\N=C(c3cc([N+](=O)[O-])cc([N+](=O)[O-])c3)OC2=O)cc1 [Molecule 97]", 92.0577],
  ["O=C(Nc1nnc(-c2ccno2)o1)c1ccc2c(c1)OCO2 [KU0171343]", 79.918]
]}

###

- target entity: P. falciparum apicoplast DNA polymerase (Pf-apPOL) (Plasmodium falciparum)
- assay notes: Fluorescence-based high-throughput DNA polymerase assay (molecular beacon), primary screen and dose-response
- Assay type: biochemical
- cond: DRC-2; 5'; concentration 20
Reported % inhibition Apo pol 5' values are given for each entry in this list.

{"columns": ["compound", "% inhibition Apo pol 5'"],
 "data": [
  ["Oc1cccc2ccc(/C=C/c3ccc4c(c3)OCO4)nc12", "50%"],
  ["Cc1ccc(NC(=O)Cn2ccc3c(=O)[nH]ccc32)cc1F [Molecule 48, O=C(Cn1ccc2c1cc[nH]c2=O)Nc1ccc(c(c1)F)C]", "44%"],
  ["COc1ccc(NC(=O)Cn2ccc3c(=O)[nH]ccc32)cc1 [Molecule 13, COc1ccc(cc1)NC(=O)Cn1ccc2c1cc[nH]c2=O]", "47%"],
  ["O=[N+]([O-])c1ccc(/C=C/c2ccc3ccccc3n2)o1", "27%"],
  ["O=C(CCc1csc(NC(=O)Nc2ccccc2)n1)Nc1nc2ccccc2s1", "37%"],
  ["O=C1C(=Cc2ccncc2)Oc2c1ccc1c2CN(Cc2ccc3c(c2)OCO3)CO1", "37%"],
  ["CCCCSc1nnc2c(n1)OC(c1ccc([N+](=O)[O-])o1)Nc1ccccc1-2 (centres unmarked)", "47%"],
  ["O=C1CCCC2=C1C(c1ccccn1)C1=C(CCCC1=O)O2", "33%"]
]}

###

Reported % inhibition Apol 40' values are given for each entry in this list.
- target entity: P. falciparum apicoplast DNA polymerase (Pf-apPOL) (Plasmodium falciparum)
- assay notes: Fluorescence-based high-throughput DNA polymerase assay (molecular beacon), primary screen and dose-response
- Assay type: biochemical
- cond: DRC-2; concentration 40; 40'
observed property: % inhibition Apol 40'

{"columns": ["compound", "observed property", "reported value"],
 "data": [
  ["COc1ccc(NC(=O)Cn2nc3c(cc2=O)CCC3)cc1Cl [Molecule 4, COc1ccc(cc1Cl)NC(=O)Cn1nc2CCCc2cc1=O]", "% inhibition Apol 40'", "70%"],
  ["O=C(Cc1cccs1)N1CCN(c2nc(CN3CCOCC3)cs2)CC1 [Molecule 35]", "% inhibition Apol 40'", "64%"],
  ["CCc1ccccc1NC(=O)c1ccc(-c2ncccc2NC(C)=O)cc1 [KU0203112]", "% inhibition Apol 40'", "68%"],
  ["O=C(Nc1c2c(nn1-c1ccccc1)CSC2)c1ccco1 [KU0055213]", "% inhibition Apol 40'", "70%"],
  ["O=C(O)c1cc([N+](=O)[O-])c(N2CCN(c3cccc(C(F)(F)F)c3)CC2)c([N+](=O)[O-])c1 [KU0076747]", "% inhibition Apol 40'", "63%"],
  ["CCCN1COc2ccc3c(=O)c(-c4ccccc4)coc3c2C1 [KU0199556]", "% inhibition Apol 40'", "55%"],
  ["COc1ccc(-c2occ(C(=O)O)c2C(=O)O)cc1 [KU0021536]", "% inhibition Apol 40'", "70%"],
  ["Oc1cccnc1/N=C/c1cc(I)cc(I)c1O [KU0073720]", "% inhibition Apol 40'", "73%"],
  ["CCOc1ccc2cc(C3=NN(C(=O)CCC(=O)O)C(c4ccc(C)cc4)C3)c(=O)[nH]c2c1 (stereo not shown) [KU0056200]", "% inhibition Apol 40'", "70%"],
  ["CCCCCc1c2c(cc(O)c1C(=O)O)OC(=O)c1c(cc(OC)cc1C(=O)CCCC)O2 [Molecule 24]", "% inhibition Apol 40'", "65%"],
  ["COc1cc(/C=C2\\C(=O)N(c3ccc(C(=O)O)cc3)N=C2C(F)(F)F)ccc1OCC(C)C [KU0069072]", "% inhibition Apol 40'", "70%"],
  ["Nc1ncnc(NC2CCCCC2)c1[N+](=O)[O-] [KU0193018]", "% inhibition Apol 40'", "64%"],
  ["COc1ccc(C=C2Oc3c(ccc4c3CN(Cc3ccco3)CO4)C2=O)c(OC)c1 [KU0199404]", "% inhibition Apol 40'", "58%"]
]}

###

- target entity: P. falciparum apicoplast DNA polymerase (Pf-apPOL) (Plasmodium falciparum)
- assay notes: Fluorescence-based high-throughput DNA polymerase assay (molecular beacon), primary screen and dose-response
- Type: biochemical
- cond: DRC-2, 180', concentration 2.5
Reported % inhibition apPOL 180' values are given for each entry in this list.

{"columns": ["compound", "% inhibition apPOL 180' [%]"],
 "data": [
  ["CSCCC(C)(O)CNC(=O)C1CC1 (stereo not drawn) [KU0200150]", 0.149],
  ["COc1ccc(C(=O)Nc2cccc(-c3nc4ncccc4o3)c2)cc1[N+](=O)[O-] [KU0063313]", -5],
  ["CO/N=C(\\C(=O)N[C@@H]1C(=O)N2C(C(=O)[O-])=C(CSc3nc(=O)c([O-])nn3C)CSC12)c1csc(N)n1.[Na+].[Na+] (stereo partly drawn) [Molecule 83]", -10],
  ["CSC(C)C(=O)C=CN(C)C (stereo not drawn) [Molecule 71, CSC(C(=O)C=CN(C)C)C]", 4],
  ["CCSc1nnc(NC(=O)Cc2csc(NC(=O)c3cnccn3)n2)s1 [Molecule 79]", -6],
  ["CN(C)C=CC(=O)c1ccccn1 [Molecule 64, CN(C=CC(=O)c1ccccn1)C]", -5],
  ["O=C(Nc1ncc([N+](=O)[O-])s1)c1ccc2c(c1)C(=O)N(N1C(=O)c3ccccc3C1=O)C2=O [KU0026378]", 6],
  ["O=C(O)CC1SC(c2ccc3c(c2)OCO3)=NC1=O (stereo not drawn) [Molecule 69, OC(=O)CC1SC(=NC1=O)c1ccc2c(c1)OCO2]", -0.895],
  ["O=C(Nc1nnc(-c2ccno2)o1)c1ccc2c(c1)OCO2 [KU0171343]", -8]
]}

###

- target entity: P. falciparum apicoplast DNA polymerase (Pf-apPOL) (Plasmodium falciparum, UniProt Q8ILY1)
- Sequence (Q8ILY1 entry or part of it): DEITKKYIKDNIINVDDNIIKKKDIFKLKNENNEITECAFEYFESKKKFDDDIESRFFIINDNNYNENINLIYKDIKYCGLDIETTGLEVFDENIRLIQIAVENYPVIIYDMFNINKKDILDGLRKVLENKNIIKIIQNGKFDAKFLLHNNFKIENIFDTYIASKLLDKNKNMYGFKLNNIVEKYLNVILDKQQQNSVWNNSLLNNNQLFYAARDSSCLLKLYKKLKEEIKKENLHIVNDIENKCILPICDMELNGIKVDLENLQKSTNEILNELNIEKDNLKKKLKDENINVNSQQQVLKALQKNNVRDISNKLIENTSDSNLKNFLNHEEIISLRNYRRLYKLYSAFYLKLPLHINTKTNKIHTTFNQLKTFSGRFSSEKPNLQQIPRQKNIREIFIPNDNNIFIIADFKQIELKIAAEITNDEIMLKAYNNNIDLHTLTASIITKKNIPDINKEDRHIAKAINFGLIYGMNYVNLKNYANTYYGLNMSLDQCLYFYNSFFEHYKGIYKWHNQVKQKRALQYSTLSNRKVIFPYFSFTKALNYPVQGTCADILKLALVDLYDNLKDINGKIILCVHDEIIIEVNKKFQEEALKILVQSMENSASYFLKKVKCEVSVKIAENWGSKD
- assay notes: Fluorescence-based high-throughput DNA polymerase assay (molecular beacon), primary screen and dose-response;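 on % inhibition ApPOL 90': test concentration in µM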
- Assay type: biochemical
- cond: DRC-2; 90'; concentration 20
observed property: % inhibition ApPOL 90' (%)

{"columns": ["molecule", "observed property", "units text", "reported value"],
 "data": [
  ["O=C(O)CCS(=O)(=O)c1ccc(-c2ccc(S(=O)(=O)CCC(=O)O)cc2)cc1", "% inhibition ApPOL 90'", "%", 37],
  ["COc1cccc(Oc2c(C(F)(F)F)oc3cc(OC(=O)N(C)C)ccc3c2=O)c1", "% inhibition ApPOL 90'", "%", 41],
  ["Cc1ccc(NC(=O)C2CCN(C(=O)c3cc4ccsc4[nH]3)CC2)c(Br)c1", "% inhibition ApPOL 90'", "%", 61],
  ["Cc1ccccc1C(=O)N1CCc2c(nc3cc(-c4ccccc4)[nH]n3c2=O)C1", "% inhibition ApPOL 90'", "%", 17],
  ["Oc1cccc2ccc(/C=C/c3ccc4c(c3)OCO4)nc12", "% inhibition ApPOL 90'", "%", 70],
  ["CCCCc1ccc(NC(=O)CSc2nc(O)c(C#N)c(C3CCCCC3)n2)c(C)c1", "% inhibition ApPOL 90'", "%", 48],
  ["Nc1cc(Oc2ccc(O)c(N)c2)ccc1O", "% inhibition ApPOL 90'", "%", 65],
  ["Cc1ccc(C)n1-c1ccc(C(=O)NNC(=O)c2ccc3nccnc3c2)cc1", "% inhibition ApPOL 90'", "%", 47],
  ["CCC(C)NC(=O)c1cc(NC(C)=O)cc2nc(C)ccc12 (centres unmarked)", "% inhibition ApPOL 90'", "%", 35],
  ["O=C1CCCC2=C1C(c1ccccn1)C1=C(CCCC1=O)O2", "% inhibition ApPOL 90'", "%", 37],
  ["COc1cc(Cl)c(C)cc1NC(=O)Cn1ccc2c(=O)[nH]ccc21", "% inhibition ApPOL 90'", "%", 61]
]}
